# TEST_TARGET: hCLEC12A-His fusion protein (human) (UniProt Q5QGZ9)
# Sequence (Q5QGZ9 65-265 limits assumed): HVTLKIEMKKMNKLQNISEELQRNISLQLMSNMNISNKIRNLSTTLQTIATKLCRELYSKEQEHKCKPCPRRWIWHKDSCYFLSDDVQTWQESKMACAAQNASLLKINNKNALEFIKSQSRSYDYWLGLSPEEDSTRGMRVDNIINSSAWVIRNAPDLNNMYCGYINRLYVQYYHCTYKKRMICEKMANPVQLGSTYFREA
# EXPERIMENTAL_DETAILS: SPR screening, semi-purified protein
ASSAY_ENDPOINT: kon (M⁻¹ s⁻¹)
A number alone suffices; assume M⁻¹ s⁻¹.

binder="F3′-1304 (bispecific antibody, part only; not given: Fc and unrelated binding arm, not shown: another chain or arm of the molecule; a dimerising Fc or GST; small tags and cut ends) scFv: DIQMTQSPSSLSASVGDRVTITCHASQNINFWLSWYQQKPGKIPKLLIYEASNLHTGVPSRFSGSGSGTRFTLTISSLQPEDIATYYCQQSHSYPLTFGCGTKLEIKGGGGSGGGGSGGGGSGGGGSQLQLQESGPGLVKPSETLSLTCTVSGFSLTNYGLHWIRQPPGKCLEWIGVIWSGGKTDYNPSLKSRVTISKDTSKNQFSLKLSSVQAADTAVYYCAKYDYDDSLDYWGQGTLVTVSS" reported_result=480000
binder="AB0186 (bispecific antibody, part only; not given: Fc, unrelated binder arm, linkers, not shown: another chain or arm of the molecule; a dimerising Fc or GST; small tags and cut ends) scFv: DIQMTQSPSSLSASVGDRVTITCKASQDIYNYLSWFQQKPGKAPKPLIYRANILVSGVPSRFSGSGSGQDYTFTISSLQPEDIATYYCLQFDAFPFTFGCGTKLEIKGGGGSGGGGSGGGGSGGGGSEVQLVESGGGVVQPGGSLRLSCAASGFTFNAFGMHWVRQAPGKCLEWVAFISSGSTSIYYANTVKGRFTISRDNSKNTLYLQMNSLRAEDTAVYYCARDGYPTGGAMDYWGQGTSVTVSS" reported_result=1.12e+06

Sample AB0191 (bispecific antibody, part only; not given: Fc, unrelated binder arm, linkers, not shown: another chain or arm of the molecule; a dimerising Fc or GST; small tags and cut ends) scFv: EVQLVESGGGVVQPGGSLRLSCAASGFTFNSFGMHWVRQAPGKCLEWVAFISSGSTSIYYANTVKGRFTISRDNSKNTLYLQMNSLRAEDTAVYYCARDGYPTGGAMDYWGQGTSVTVSSGGGGSGGGGSGGGGSGGGGSDIQMTQSPSSLSASVGDRVTITCKASQDIYNYLSWFQQKPGKAPKPLIYRANILVSGVPSRFSGSGSGQDYTFTISSLQPEDIATYYCLQFDAFPFTFGCGTKLEIK — what was its kon?
728000
